Assay: Liver microsomes stability, rat
Conditions: rat, liver microsomes
Decide by microsomal CLint at 2 μM: equal to or exceeding 90 µL/min/mg means 1 (yes), less means 0 (no).

The following molecules have reported results that may help.
MOLECULE: O=C(O)Cc1ccccc1Nc1c(Cl)cccc1Cl [Diclofenac]
GROUP LABEL: 1 (yes)
--
MOLECULE: CN(C)CCC1CNc2ccc(F)cc21 (centres unmarked) [Compound I-2]
GROUP LABEL: 1 (yes)

Item COc1ccc2c(c1)C(CCN(C)C)CN2 (centres unmarked) [II-1] with microsomal CLint at 2 μM of 90 µL/min/mg or above?
1 (yes)

Proceed to CN(C)CCC1CNc2ccccc21 (centres unmarked) [II-2]
0 (no)

----------
Target: human 5-HT2A (h5-HT2A) receptor (Homo sapiens, UniProt P28223)
Construct: expressed in transfected cells; cultured under G418 and hygromycin B selection
Sequence (P28223 whole entry): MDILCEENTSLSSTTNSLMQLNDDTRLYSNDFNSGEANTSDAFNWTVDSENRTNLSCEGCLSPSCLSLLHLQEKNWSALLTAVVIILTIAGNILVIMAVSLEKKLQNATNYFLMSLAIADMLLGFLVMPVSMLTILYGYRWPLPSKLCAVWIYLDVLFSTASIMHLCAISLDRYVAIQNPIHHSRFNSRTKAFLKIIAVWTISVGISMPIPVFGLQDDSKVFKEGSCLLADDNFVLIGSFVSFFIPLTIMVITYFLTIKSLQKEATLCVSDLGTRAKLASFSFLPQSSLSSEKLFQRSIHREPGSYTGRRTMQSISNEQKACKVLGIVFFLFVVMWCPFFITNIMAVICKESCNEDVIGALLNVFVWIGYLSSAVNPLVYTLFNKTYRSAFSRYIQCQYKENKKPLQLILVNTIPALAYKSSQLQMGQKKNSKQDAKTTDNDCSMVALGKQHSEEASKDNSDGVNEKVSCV
Test: FLIPR assay, human 5-HT2A receptor under agonist mode
Format: cell-based
Settings: EC50, 5-HT2A (FLIPR)
OUTCOME MEASURE: pEC50
Scale note: pEC50 = -log10(concentration in M).

What value of pEC50 has been reported for the following molecule? CN(C)CCc1c[nH]c2ccccc12 [DMT, N,N-dimethyltryptamine, reference compound]
6.44

----------
Measured Remaining Percentage accompanies every entry in the list below.
Assay: Liver microsomes stability, rat
Conditions: rat, With NADPH, 30 min
Reply with the number, then its unit.

MOLECULE: CN(C)CCC1CNc2ccccc21 (centres unmarked)
Remaining Percentage: 26.32%

// next item, Remaining Percentage requested
For the molecule COc1ccc2c(c1)C(CCN(C)C)CN2 (centres unmarked) , what Remaining Percentage is on record?
20.42%

----------
Experiment: Liver microsomes stability, human
Settings: human, With NADPH, 30 min
Binary label based on Remaining Percentage with cut-off 70%: below gives met, not below gives not met.

Solved cases below.
COMPOUND: [2H]C([2H])([2H])Oc1ccc2c(c1)C(CCN(C)C)CN2 (centres unmarked) [Compound I-11]
GROUP LABEL: not met
//
COMPOUND: CN(C)CCC1CNc2ccccc21 (centres unmarked) [II-2]
GROUP LABEL: not met
//
COMPOUND: CN(C)CCC1CNc2ccc(F)cc21 (centres unmarked) [Compound I-2]
GROUP LABEL: not met
//
COMPOUND: O=C(O)Cc1ccccc1Nc1c(Cl)cccc1Cl [Diclofenac]
GROUP LABEL: met

Then there is this compound:
For COc1ccc2c(c1)C(CCN(C)C)CN2 (centres unmarked) [II-1] , is the recorded Remaining Percentage below the cut-off of 70%?
met

----------
Test: Liver microsomes stability, human
Settings: human liver microsomes
// classify: if (Predicted hepatic CL < 10 mL/min/kg) label 1 else label 0

// below: answered molecules
MOLECULE: COc1ccc2c(c1)C(CCN(C)C)CN2 (centres unmarked)
GROUP LABEL: label 0
--
MOLECULE: CN(C)CCC1CNc2ccccc21 (centres unmarked)
GROUP LABEL: label 1
--
MOLECULE: O=C(O)Cc1ccccc1Nc1c(Cl)cccc1Cl
GROUP LABEL: label 0
--
MOLECULE: CN(C)CCC1CNc2ccc(F)cc21 (centres unmarked)
GROUP LABEL: label 1

Turning to the following molecule.
Lab log: compare recorded Predicted hepatic CL with 10 mL/min/kg; is it strictly lower for [2H]C([2H])([2H])Oc1ccc2c(c1)C(CCN(C)C)CN2 (centres unmarked) ?
label 0
